biological target: full-length human PLD2 (Homo sapiens (Human)); assay: Evaluation of human PLD2 enzyme inhibitory activity (Amplex Red / choline oxidase fluorescence); format: biochemical; conditions: full-length human PLD2 enzyme; read-out: PLD2 IC50
Sequence (O14939 whole entry): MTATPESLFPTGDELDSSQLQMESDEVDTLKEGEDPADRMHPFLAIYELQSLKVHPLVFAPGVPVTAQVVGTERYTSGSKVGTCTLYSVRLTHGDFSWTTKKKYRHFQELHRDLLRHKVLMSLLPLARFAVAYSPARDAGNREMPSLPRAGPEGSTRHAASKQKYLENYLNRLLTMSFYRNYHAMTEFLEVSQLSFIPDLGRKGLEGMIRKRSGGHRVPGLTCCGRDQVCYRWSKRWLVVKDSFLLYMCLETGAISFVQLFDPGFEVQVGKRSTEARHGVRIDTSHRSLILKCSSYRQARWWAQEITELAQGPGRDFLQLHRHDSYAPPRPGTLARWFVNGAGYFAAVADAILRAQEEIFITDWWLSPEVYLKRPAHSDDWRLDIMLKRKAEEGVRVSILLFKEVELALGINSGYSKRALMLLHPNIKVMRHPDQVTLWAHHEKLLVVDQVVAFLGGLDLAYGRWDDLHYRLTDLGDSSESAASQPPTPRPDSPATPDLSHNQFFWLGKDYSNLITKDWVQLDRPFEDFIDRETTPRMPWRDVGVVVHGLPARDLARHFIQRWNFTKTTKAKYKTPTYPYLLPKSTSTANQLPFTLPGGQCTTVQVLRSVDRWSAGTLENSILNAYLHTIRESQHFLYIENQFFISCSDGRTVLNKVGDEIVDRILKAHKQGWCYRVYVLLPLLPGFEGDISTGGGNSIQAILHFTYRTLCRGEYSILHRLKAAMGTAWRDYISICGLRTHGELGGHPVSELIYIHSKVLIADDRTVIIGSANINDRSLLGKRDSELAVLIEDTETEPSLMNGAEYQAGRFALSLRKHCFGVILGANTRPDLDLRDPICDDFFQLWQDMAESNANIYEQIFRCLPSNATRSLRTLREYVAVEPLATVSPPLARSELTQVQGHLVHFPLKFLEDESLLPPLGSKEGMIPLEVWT
pIC50: −log10 of the molar value.
experimental-endpoint: pIC50

- compound: "CNC(=O)C(=O)N[C@@H](C)C[C@H]1CC[C@]2(CC1)OC(=O)NN=C2c1cc(OC(F)F)ccc1C [Example 194]"
  assay-value: "> 8.00"
- compound: "CNC(=O)/C=C/C(=O)N[C@@H](C)CN1CCC2(CC1)OC(=O)NN=C2c1cc(C#N)ccc1Br [Example 2-041]"
  assay-value: 6.99
- compound: "CNC(=O)C(=O)N[C@@H](C)C[C@]1(C#N)CC[C@@]2(CC1)OC(=O)NN=C2c1cc(OC)ncc1Br [Example 2-077]"
  assay-value: "> 8.00"

Value lookup for pIC50; key = C[C@@H](C[C@H]1CC[C@]2(CC1)OC(=O)NN=C2c1cc(OCC(F)(F)F)ccc1Br)NC(=O)C(=O)NC1CC1 [Example 297] > 8.00
